ASSAYED TARGET: T1, recombinant Cad-11 EC1 human IgG1 fusion protein (R&D Systems Cat. No. 1790-CA-050) (human, UniProt P55287 54-617, limits assumed)
T1 construct: Bought protein; the catalogue product may hold more of the extracellular region; also called recombinant human Cad-11 EC1; recombinant human Cad-11 fusion protein; not shown: human IgG1 part of the bought fusion protein
T1 sequence: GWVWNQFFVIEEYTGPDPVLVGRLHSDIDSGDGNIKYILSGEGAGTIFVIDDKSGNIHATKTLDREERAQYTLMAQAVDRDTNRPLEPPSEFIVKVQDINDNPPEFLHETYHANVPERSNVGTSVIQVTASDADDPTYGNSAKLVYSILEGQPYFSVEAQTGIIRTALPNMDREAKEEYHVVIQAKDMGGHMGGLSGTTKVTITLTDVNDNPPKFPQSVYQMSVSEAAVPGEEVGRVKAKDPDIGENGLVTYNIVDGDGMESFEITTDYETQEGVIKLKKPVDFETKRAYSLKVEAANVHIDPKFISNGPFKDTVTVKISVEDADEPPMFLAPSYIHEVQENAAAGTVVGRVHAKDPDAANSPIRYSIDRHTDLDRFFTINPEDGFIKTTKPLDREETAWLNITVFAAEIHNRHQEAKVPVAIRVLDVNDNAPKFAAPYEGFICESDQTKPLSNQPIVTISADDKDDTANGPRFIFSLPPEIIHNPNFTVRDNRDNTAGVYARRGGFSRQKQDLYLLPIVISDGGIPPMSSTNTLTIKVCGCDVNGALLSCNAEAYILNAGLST
MEASUREMENT NOTES: competition ELISA on coated recombinant human Cad-11 EC1 fusion; competitor biotinylated SYN0012/H1M1 at 0.1 µg/ml
OUTCOME MEASURE: relative IC50 (IC50 of the test antibody divided by that of SYN0012)

>>> result("humanized anti-Cad-11 antibody SDP081 (Vκ2/VH3) (antibody, IgG4, V domains shown, humanized IgG4 (S241P), kappa) VH: EVQLVQSGAEVKKPGASVKISCKASGYSFTGYFMNWVRQAPGQGLEWIGRINPYTGDTFYNQKFKGRATLTVDKSTSTAYMELSSLRSEDTAVYYCGRLGSRYWYFDVWGQGTTVTVSS VL: DVLMTQTPLSSPVTLGQPASISCRSSQSIIHSNGNTYLEWYLQKPGQSPQLLIYKVSNRFSGVPDRFSGSGSGTDFTLKISRVEAEDVGVYYCFQGSHVPWTFGQGTKLEIK")
"0.42 ratio (column head prints µg/mL)"

What does the data say about its relative IC50 (IC50 of the test antibody divided by that of SYN0012)? Entry: humanized anti-Cad-11 EC1 antibody SDP051 (Vκ1/VH5) (antibody, IgG4, V domains shown, humanized IgG4 (S241P), kappa) VH: EVQLVQSGAEVKKPGASVKVSCKASGYSFTGYFMNWVRQAPGQGLEWIGRINPYTGDTFYNQKFKGRVTITVDKSTSTAYMELSSLRSEDTAVYYCGRLGSRYWYFDVWGQGTTVTVSS VL: DVLMTQTPLSSPVTLGQPASISCRSSQSIIHSNGNTYLEWYLQKPGQSPQLLIYKVSNRFSGVPDRFTGSGSGTDFTLKISRVEAEDVGVYYCFQGSHVPWTFGQGTKLEIK
0.99 ratio (column head prints µg/mL)
